METHOD SUMMARY: modulators of LAP4-GFP expression in yeast, primary screen, S. cerevisiae, multiplex flow cytometry (AID 1873)
CONDITIONS: 3 h, at 10 µM, hits give high values
Inconclusive results are not listed.
# Lookup of reported GFP response vs DMSO keyed by entry
Give the number; % is assumed, so skip it.

Consider the following illustrative entries.
[
  {
    "MOLECULE": "C/C(=N\\N=C1\\NC(=O)C(CC(=O)Nc2ccc(Cl)cc2)S1)c1ccco1 (stereo unspecified)",
    "VALUE": 91.3
  },
  {
    "MOLECULE": "COc1ccc(OC)c(-n2c(Cn3c(-c4ccccn4)nc4ccccc43)n[nH]c2=S)c1",
    "VALUE": 90.3
  },
  {
    "MOLECULE": "COC(=O)c1ccccc1OCCOCCOc1cccc2ccc(C)nc12",
    "VALUE": 90.3
  },
  {
    "MOLECULE": "O=C1C2C3C=CC(C4CC34)C2C(=O)N1/N=C/c1ccc(-c2ccc([N+](=O)[O-])cc2)o1 (stereo unspecified)",
    "VALUE": 85.4
  },
  {
    "MOLECULE": "CC(C)(C)NC[C@H](O)COc1nsnc1N1CCOCC1",
    "VALUE": 78.7
  },
  {
    "MOLECULE": "COc1cc(C2CC(=O)NC3=C2C(=O)CC(C)(C)C3)ccc1O (stereo unspecified)",
    "VALUE": 100
  },
  {
    "MOLECULE": "CC(CCc1ccccc1)NCC(O)c1ccc(O)c(C(N)=O)c1 (stereo unspecified)",
    "VALUE": 109
  },
  {
    "MOLECULE": "COc1cc(C2C(C(=O)c3ccc(C)o3)=C(O)C(=O)N2Cc2cccnc2)ccc1O (stereo unspecified)",
    "VALUE": 81.4
  },
  {
    "MOLECULE": "O=C(Nc1cccc(Cl)c1)N1CCN2C(=O)c3ccccc3C12c1ccccc1 (stereo unspecified)",
    "VALUE": 92.3
  },
  {
    "MOLECULE": "Cn1c(=O)c2c(ncn2CC(O)CO)n(C)c1=O (stereo unspecified)",
    "VALUE": 104
  }
]

The recorded GFP response vs DMSO for Cc1ccc2c(c1)OC(=O)CC2c1ccccc1 (stereo unspecified) is 102

The recorded GFP response vs DMSO for Cc1ccccc1OCCSc1nc2ncnc(N)c2[nH]1 is 99.4

The recorded GFP response vs DMSO for CC[C@H]1OC(=O)[C@H](C)[C@@H](O[C@H]2C[C@@](C)(OC)[C@@H](O)[C@H](C)O2)[C@H](C)[C@@H](O[C@@H]2O[C@H](C)C[C@H](N(C)C)[C@H]2O)[C@](C)(O)C[C@@H](C)[C@@H]2N[C@@H](COCCOC)O[C@H]([C@H]2C)[C@]1(C)O is 79.2

The recorded GFP response vs DMSO for COc1ccc(CN(CCN(C)C)c2ccccn2)cc1 is 103
